Reference source for all entries: patent US20210379035A1

# assay-text: Single-dose renal impairment PK and safety study in non-Fabry subjects (Example 1)
# Format: in vivo, human
# test-context: human, plasma, oral, 150 mg, single 150 mg migalastat HCl, non-Fabry; Mild (N = 8); read-out: t1/2 (converted)
observed-property: half-life (min)
Please respond with the number in min and leave the unit unwritten.

Problem: Entry under review: `OC[C@H]1NC[C@H](O)[C@@H](O)[C@H]1O` . Reported half-life?
Solution: 460
